Target entity: UniProtKB Q07869
Assay text: Reporter gene transactivation, hPPAR-GAL4 alpha
Run parameters: transfected Cos-7 cells, Gal-4 luciferase reporter, 24 hours treatment
Some molecules, each annotated with its measured EC50.

Illustrative cases are given below, each with its answer.
[[record]]
molecule = "CCCCCCCn1nc(NCCCc2cccc(OC(C)(C)C(=O)OCC)c2)c(=O)n(C)c1=O [Example 64]"
result = "> 10000 nM"

[[record]]
molecule = "CCOC(=O)C(C)(C)Oc1ccc(CCN(CCc2ccccc2)c2nn(C)c(=O)n(C)c2=O)cc1 [Example 114]"
result = "~10000 nM"

[[record]]
molecule = "CCCCCCCn1nc(NCCCc2cccc(OC(C)(C)C(=O)OCC)c2)c(=O)n(CCCCCCC)c1=O [Example 69]"
result = "1000 to 3000 nM"

[[record]]
molecule = "CCCCCCCn1c(=O)c(NCCCCc2cccc(OC(C)(C)C(=O)OCC)c2)nn(C/C=C/C(=O)OCC)c1=O [Example 87]"
result = "~300 nM"

[[record]]
molecule = "Cn1nc(NCCCCc2cccc(OC(C)(C)C(=O)OC(C)(C)C)c2)c(=O)n(CCCC(F)(F)F)c1=O [Example 78]"
result = "> 10000 nM"

[[record]]
molecule = "CCCCCCCn1c(=O)c(N(CCc2ccccc2)CCc2ccc(OC(C)(C)C(=O)OCC)cc2)nn(C)c1=O [Example 116]"
result = "~10000 nM"

[[record]]
molecule = "CCOC(=O)C(C)(C)Oc1cccc(CCCCNc2nn(CCCC(F)(F)F)c(=O)n(C)c2=O)c1 [Example 74]"
result = "~1000 nM"

[[record]]
molecule = "CCCCCCCn1nc(NCCCCc2cccc(OC(C)(C)C(=O)OCC)c2)c(=O)n(C)c1=O [Example 75]"
result = "3000 to 10000 nM"

[[record]]
molecule = "CCOC(=O)C(C)(C)Oc1ccc(CCN(CCCc2ccccc2)c2nn(C)c(=O)n(C)c2=O)cc1 [Example 115]"
result = "~3000 nM"

[[record]]
molecule = "CCOC(=O)C(C)(C)Oc1ccc(CCNc2nn(COCc3ccccc3)c(=O)n(COCc3ccccc3)c2=O)cc1 [Example 110]"
result = "1000 to 3000 nM"


Entry CCCCCCCN(CCc1ccc(OC(C)(C)C(=O)O)cc1)c1nn(C)c(=O)n(C)c1=O [Example 113] under UniProtKB Q07869 had EC50 of 300 to 1000 nM

Entry CCOC(=O)C(C)(C)Oc1cccc(CCCCNc2nn(CCC#N)c(=O)n(CCCC(F)(F)F)c2=O)c1 [Example 81] ; assay system UniProtKB Q07869; EC50 recorded at 300 to 1000 nM

----------
Target entity: human PPARα (Homo sapiens, UniProt Q07869)
Sequence (Q07869 239-466 limits assumed): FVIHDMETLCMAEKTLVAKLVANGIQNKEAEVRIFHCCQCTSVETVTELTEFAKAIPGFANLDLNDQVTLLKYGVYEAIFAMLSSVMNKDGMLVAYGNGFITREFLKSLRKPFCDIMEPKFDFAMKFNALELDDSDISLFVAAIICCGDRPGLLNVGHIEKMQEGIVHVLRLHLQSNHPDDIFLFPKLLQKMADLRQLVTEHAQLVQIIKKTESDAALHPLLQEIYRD
Assay text: Reporter gene transactivation, hPPAR-GAL4 alpha
Run parameters: transfected Cos-7 cells, Gal-4 luciferase reporter, 24 hours treatment
pEC50: −log10 of the molar value.
Listed molecules paired with reported pEC50

"CCOC(=O)C(C)(C)Oc1ccc(CCCCOc2nn(CCCC(F)(F)F)c(=O)n(C)c2=O)cc1" yielded pEC50 of ~5.00

Item: "CCCCCCCn1c(=O)c(NCCCCc2cccc(OC(C)(C)C(=O)OCC)c2)nn(Cc2ccccc2)c1=O" | pEC50: < 5.00

Quick note, pEC50 for "CCCCCCCn1nc(NCCc2ccc(SC(C)(C)C(=O)O)cc2)c(=O)n(C)c1=O" landed at 6.00 to 6.52

Lab book: pEC50 of "CCOC(=O)C(C)(C)Oc1cccc(CCCOc2nn(C)c(=O)n(CCCC(F)(F)F)c2=O)c1" noted as ~6.52

response.value for CC(C)(Oc1ccc(C(=O)c2ccc(Cl)cc2)cc1)C(=O)O [Fenofibric acid, reference compound] (field: pEC50) = 4.77

The measured pEC50 associated with "CCCCn1c(=O)c(OCCCCCc2cccc(OC(C)(C)C(=O)OCC)c2)nn(CCCC(F)(F)F)c1=O" reads 7.52 to 8.00

"CCCCCCCn1c(=O)c(NCCCCc2cccc(SC(C)(C)C(=O)OCC)c2)nn(CCCC(F)(F)F)c1=O" has a reported pEC50 of 5.52 to 6.00

Field pEC50 (entry "Cn1c(=O)c(NCCc2ccc(SC(C)(C)C(=O)O)cc2)nn(CCCC(F)(F)F)c1=O" ) reads 5.52 to 6.00

# pEC50 (molecule: "CCOC(=O)C(C)(C)Oc1ccc(OCCCNc2nn(C)c(=O)n(CCCC(F)(F)F)c2=O)cc1" ) is 6.00 to 6.52

Cited source for all entries: patent US7713971B2
